test system: Madurella mycetomatis MM55; test: percent growth relative to solvent control; higher = less inhibition, active = 20 or less; settings: 100 µM; 7 days
Metric: percent growth (%)
Field: numeric (%). Do not append units.

Compound	Value Observed
CC(=O)Nc1ccc(-c2noc(CC3CCCN(Cc4cccc(F)c4C)C3)n2)cc1 (stereo not given)	1.89
CN(C)c1cc(NC(=O)Nc2ccccc2)c2ccccc2n1	8.07

Given CCOc1ccc2cc(-c3nn(C(C)(C)C)c(N)c3C(N)=O)cnc2c1 , state its recorded percent growth. 98.2

Given FC(F)(F)c1cc(NCCc2ccccc2)nc(-c2ccccn2)n1 , state its recorded percent growth. -0.699

Given COc1nc2ccc(Br)cc2cc1[C@@H](c1ccccc1)[C@@](O)(CCN(C)C)c1cccc2ccccc12 , state its recorded percent growth. 100

Given CCOC(=O)NC(=O)c1ccsc1NC(=O)c1nc2ccccc2s1 , state its recorded percent growth. 78.6

Given COc1ccc(-c2nc(-c3cccc(NC(=O)Cc4ccc(F)cc4)c3)no2)cc1OC , state its recorded percent growth. 95
